Molecular target: T1, SNTG1, Q9NSN8
T1 sequence (Q9NSN8 52-150, limits assumed, looked up): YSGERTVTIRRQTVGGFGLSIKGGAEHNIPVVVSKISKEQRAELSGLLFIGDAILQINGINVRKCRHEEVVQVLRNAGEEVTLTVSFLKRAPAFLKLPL
Experiment: holdup assay
Set-up: key: below the threshold = too weak to quantify, mostly under pKd 3.1 to 4
Details: plain residues with an end cap or a label only (N-terminal biotin on a linker: ado-ado)
Reported property: pKd
The reply should be a number, written without any unit.

Input line: Report pKd for EAVTVESTSL [SLC22A11, Q9NSA0] please.
Output line: 3.5

Input line: Moving on to YAEKRMLTEV [KCNA6, P17658]
Output line: 3.57

Input line: Moving on to SGDGKTSVWI [GJC1, P36383]
Output line: 3.61

Input line: Moving on to LPPPESESKV [KCNJ9, Q92806]
Output line: 4.31

Input line: Moving on to AHGSTRDQSI [KCNB1, Q14721]
Output line: 3.5

Data credit: paper PMC9482650
